Details: Crystal; visual observation
VALUE_TYPE: Normal melting temperature (°C)
Return type: number; implicit unit °C.

- COMPOUND: "O=Cc1cccc(O)c1 [3-hydroxybenzaldehyde]"
  RESULT_UNITS: "°C"
  MEASURED_NUMBER: 103.00
- COMPOUND: "Clc1ccc(Br)cc1 [1-bromo-4-chlorobenzene]"
  RESULT_UNITS: "°C"
  MEASURED_NUMBER: 65.00
- COMPOUND: "c1ccc(-c2ccccc2)cc1 [biphenyl]"
  RESULT_UNITS: "°C"
  MEASURED_NUMBER: 70.50

Let's switch to this compound now.
What the record says about Nc1cccc(O)c1 [3-hydroxybenzenamine] : Normal melting temperature is 123.00
